- method-summary: label from the status in PepcDB records
endpoint-label: protein production

MMVGLINAIPVANKDEYKNVGVYIEHRGDEIKRSSLEMIGIGKQLARKINEKLLCVVIGDKVDGIAKEVGEYGCDIVLAAESPDLAEYRTMPYAQIIGDYIAEYKPNIFLLAATRNGRDLASRIAVKERTGITADCTVLDVDENRTLLANRPTYGESTLAEILCRNHRPQMATARPGTFTPAEKEKDHKYEIVKKKVNVDKNMLKKQIIKFIPKKATDLTAAKIVVAGGLGLGGPDGFKLLQDLADLIGGAVGSSRPPVDLGWITRDHQVGQTGQAVRPDLYVAVGISGKPQHVAGMKFSKVIISINKDPNAEINKISDYIIVEDYRKAVPALIDAIKNFGKQKVAEAQKA :: failed
MAEEKVKDEAMQIMGMFQILPRLVVFDLDYTLWPFYCECRSKREMPSMYPQAKGILSALKEKGIEMAIASRSPTSDIANTFLDKLNIKPMFVAKVSKMGVTSILVGDGVTLGAFRQGLTEFTQNHNSIEKNKQVWRDKYSGKPTSSETDKD :: failed
MYTNRWEGLDEFVAVAECGQFTAAALRLGVSSSHVSRQIVRLEERLQTRLLYRSTRKVALTEAGQTFLHHCQRLQDGREEALRAVGDLASEPKGLLRMTCAVAYGERFITPLVTRFMELYPQLRVDIELSNDTLDLVHEGMDLAIRLGRLQDSRMVATRLAPRQMYLCASPSYLERYGRPHSLSELSRHNCLIGGSDTWQLQQNGREFSQRVQGNWRCNSGQAVLDAALQGVGLCQLPDYYVQKHLKEGALVSLLEAHQPPNTAVWALYPQQRHLSPKVRKLVDYLKEGLAMQDEYRQ :: failed
MTRIAIALAQDFADWEPALLAAAARSYLGVEIVHATPDGMPVTSMGGLKVTPDTSYDALDPVDIDALVIPGGLSWEKGTAADLGGLVKRFRDRDRLVAGICAAASALGGTGVLNDVAHTGNALASHKAYPAYRGEAHYRDQPRAVSDGGVVTAAGSAPVSFAVEILKSLGLFGPEAEAELQIFAAEHR :: not failed
MSKTDTAAVEATEENSNETTSDAATSSSGEKEAEFDNKIEADRSRRFDFLLKQTEIFTHFMTNSAKSPTKPKGRPKKIKDKDKEKDVADHRHRKTEQEEDEELLAEDSATKEIFRFDASPAYIKSGEMRDYQIRGLNWMISLYENGINGILADEMGLG :: failed

Now for a further sequence.
input: Form field: reported protein production of "MSLVKIVRIETFPLFHRLEKPYGDANGFKRYRTCYLIRIITESGIDGWGECVDWLPALHVGFTKRIIPFLLGKQAGSRLSLVRTIQKWHQRAASAVSMALTEIAAKAADCSVCELWGGRYREEIPVYASFQSYSDSPQWISRSVSNVEAQLKKGFEQIKVKIGGTSFKEDVRHINALQHTAGSSITMILDANQSYDAAAAFKWERYFSEWTNIGWLEEPLPFDQPQDYAMLRSRLSVPVAGGENMKGPAQYVPLLSQRCLDIIQPDVMHVNGIDEFRDCLQLARYFGVRASAHAYDGSLSRLYALFAQACLPPWSKMKNDHIEPIEWDVMENPFTDLVSLQPSKGMVHIPKGKGIGTEINMEIVNRYKWDGSAYEGHHHHHH"
output: not failed
